Every entry's value here was drawn from PubChem BioAssay (NCI).

Tested on: COLO 205 colon
Assay: NCI tumour cell line growth inhibition, 48 h
Entries and their TGI values follow.

- N.N.N.N.N#N.N#N.[Cl-].[Os+6]: > 100 µM
- CC(C)(C)C1=CC(=N/N=c2\scc(-c3ccccc3)n2Cc2ccccc2)C=C(C(C)(C)C)C1=O: > 100 µM

// below: TGI requested for another compound
Checklist item: TGI tested on COLO 205 colon, entry O=[N+]([O-])c1ccc2c(c1)nc1n2C(c2c(F)cccc2F)SC1 (stereo not drawn) , value? > 100 µM

====

Tested on: ACHN renal
Experiment: NCI tumour cell line growth inhibition, 48 h
property-name: GI50

Look over these answered cases.
- COc1cc(/C=C/C(=O)c2c(C)n([O-])c3ccccc3[n+]2=O)cc(OC)c1OC: 10.8 µM
- CN[C@@H](C)C(=O)N[C@H](C(=O)N1CCC[C@H]1c1nc(C(=O)c2ccc(F)cc2)cs1)C1CCCCC1: 26.6 µM

Fill in: GI50 of `O=[N+]([O-])c1ccccc1/C=N\NC(=S)N/N=C/c1ccccc1[N+](=O)[O-]` is ___ 7.53 µM

Find the recorded GI50 belonging to `CN(c1cccc(C(=O)O)c1)c1cc(O/N=[N+](\[O-])N(C)C)c([N+](=O)[O-])cc1[N+](=O)[O-]` and report it. > 100 µM
